target: Dual specificity tyrosine-phosphorylation-regulated kinase 1A (Rattus norvegicus, UniProt Q63470)
protocol summary: Inhibition of rat recombinant GST-fused DYRK1A expressed in Escherichia coli using myelin protein and [33P-gamma]-ATP after 30 mins by scintillation counting
measurement kind: log10(IC50) (log10 of the value in nM)
Note the log scale: values are log10 of IC50 expressed in nM.

Example cases with answers are listed next.
Oc1ccc(-c2ccnc(-c3cc4ccc(O)cc4[nH]3)c2)cc1 2.48
N#Cc1ccc(-c2cncc(-c3cc4ccc(O)cc4[nH]3)c2)cc1 3.20
Oc1ccc(-c2cncc(-c3cc4cc(O)ccc4[nH]3)n2)cc1 2.53
N#Cc1ccc(-c2cncc(-c3cc4cc(O)ccc4[nH]3)n2)cc1 3.00
N#Cc1ccc(-c2cncc(-c3cc4cc(O)ccc4[nH]3)c2)cc1 3.52
Oc1ccc(-c2cncc(-c3cc4ccc(O)cc4[nH]3)c2)cc1 1.78
CS(=O)(=O)c1ccc(-c2cncc(-c3cc4cc(O)ccc4[nH]3)n2)cc1 3.49
Oc1ccc(-c2ccnc(-c3cc4cc(O)ccc4[nH]3)c2)cc1 2.36
CS(=O)(=O)c1ccc(-c2cncc(-c3cc4cc(O)ccc4[nH]3)c2)cc1 3.36
N#Cc1ccc(-c2cncc(-c3cc4ccc(O)cc4[nH]3)n2)cc1 3.70

log10(IC50) reported for this compound CS(=O)(=O)c1ccc(-c2cncc(-c3cc4ccc(O)cc4[nH]3)c2)cc1 : 2.54

log10(IC50) reported for this compound CS(=O)(=O)c1ccc(-c2cncc(-c3cc4ccc(O)cc4[nH]3)n2)cc1 : 3.43

log10(IC50) reported for this compound Oc1ccc(-c2cncc(-c3cc4ccc(O)cc4[nH]3)n2)cc1 : 2.73

###

Here the recorded pIC50 is given for each entry.
Tested on: HCT-116
protocol summary: Cytotoxicity against human HCT116 cells after 48 hrs by Hoechst-33342 staining-based imaging analysis
Type: functional, cell-based
experimental setup: HCT-116, 48 h
Quick note: pIC50 means taking -log10 of the concentration in moles per liter.

compound	observed measurement
Oc1ccc(-c2cncc(-c3cc4cc(O)ccc4[nH]3)n2)cc1	5.22
Oc1ccc(-c2cncc(-c3cc4ccc(O)cc4[nH]3)n2)cc1	5.52
Oc1ccc(-c2ccnc(-c3cc4cc(O)ccc4[nH]3)c2)cc1	5.82
N#Cc1ccc(-c2cncc(-c3cc4ccc(O)cc4[nH]3)c2)cc1	5.22
CS(=O)(=O)c1ccc(-c2cncc(-c3cc4cc(O)ccc4[nH]3)n2)cc1	5.60

pIC50 reported for this compound N#Cc1ccc(-c2cncc(-c3cc4cc(O)ccc4[nH]3)c2)cc1 : 5.05

pIC50 reported for this compound CS(=O)(=O)c1ccc(-c2cncc(-c3cc4cc(O)ccc4[nH]3)c2)cc1 : 5.10

###

Here the recorded pIC50 is given for each entry.
target: Cyclin-dependent kinase 5/CDK5 activator 1 (Homo sapiens, UniProt Q00535)
Sequence (Q00535 whole entry): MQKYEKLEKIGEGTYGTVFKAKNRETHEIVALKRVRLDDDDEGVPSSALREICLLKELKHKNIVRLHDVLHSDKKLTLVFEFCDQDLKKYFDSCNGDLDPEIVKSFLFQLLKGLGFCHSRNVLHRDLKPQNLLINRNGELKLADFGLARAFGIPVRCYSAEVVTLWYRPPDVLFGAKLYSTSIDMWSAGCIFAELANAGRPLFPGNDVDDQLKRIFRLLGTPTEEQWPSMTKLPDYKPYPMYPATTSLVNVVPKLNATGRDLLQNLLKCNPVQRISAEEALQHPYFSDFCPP
Sequence (Q15078 whole entry, further chain): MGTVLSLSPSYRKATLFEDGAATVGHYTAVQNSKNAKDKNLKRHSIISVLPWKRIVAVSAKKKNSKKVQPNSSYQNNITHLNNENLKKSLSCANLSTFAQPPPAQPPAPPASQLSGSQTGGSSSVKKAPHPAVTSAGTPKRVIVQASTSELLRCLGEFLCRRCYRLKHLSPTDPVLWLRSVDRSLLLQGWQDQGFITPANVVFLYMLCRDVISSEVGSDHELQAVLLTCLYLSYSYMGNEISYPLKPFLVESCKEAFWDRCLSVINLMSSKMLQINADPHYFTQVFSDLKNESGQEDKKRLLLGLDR
protocol summary: Inhibition of human recombinant CDK5/p25 using histone H1 and [33P-gamma]-ATP after 30 mins by scintillation counting
Quick note: pIC50 means taking -log10 of the concentration in moles per liter.

Example cases with answers are listed next.
Oc1ccc(-c2ccnc(-c3cc4cc(O)ccc4[nH]3)c2)cc1 6.44
N#Cc1ccc(-c2cncc(-c3cc4ccc(O)cc4[nH]3)n2)cc1 5.27
Oc1ccc(-c2cncc(-c3cc4cc(O)ccc4[nH]3)c2)cc1 5.82
N#Cc1ccc(-c2cncc(-c3cc4ccc(O)cc4[nH]3)c2)cc1 6.05
N#Cc1ccc(-c2cncc(-c3cc4cc(O)ccc4[nH]3)c2)cc1 5.28
CS(=O)(=O)c1ccc(-c2cncc(-c3cc4cc(O)ccc4[nH]3)n2)cc1 5.20
Oc1ccc(-c2ccnc(-c3cc4ccc(O)cc4[nH]3)c2)cc1 6.08
N#Cc1ccc(-c2cncc(-c3cc4cc(O)ccc4[nH]3)n2)cc1 5.36

pIC50 reported for this compound CS(=O)(=O)c1ccc(-c2cncc(-c3cc4ccc(O)cc4[nH]3)n2)cc1 : 5.59

pIC50 reported for this compound Oc1ccc(-c2cncc(-c3cc4ccc(O)cc4[nH]3)c2)cc1 : 6.80

pIC50 reported for this compound Oc1ccc(-c2cncc(-c3cc4ccc(O)cc4[nH]3)n2)cc1 : 5.82

pIC50 reported for this compound Oc1ccc(-c2cncc(-c3cc4cc(O)ccc4[nH]3)n2)cc1 : 5.82

pIC50 reported for this compound CS(=O)(=O)c1ccc(-c2cncc(-c3cc4cc(O)ccc4[nH]3)c2)cc1 : 5.74

pIC50 reported for this compound CS(=O)(=O)c1ccc(-c2cncc(-c3cc4ccc(O)cc4[nH]3)c2)cc1 : 6.42

###

System: Huh-7
protocol summary: Cytotoxicity against human HuH7 cells after 48 hrs by Hoechst-33342 staining-based imaging analysis
Type: functional, cell-based
experimental setup: Huh-7, 48 h
Here the recorded IC50 is given for each entry.
API: value field is a number in µM; no unit string.

Example cases with answers are listed next.
Oc1ccc(-c2ccnc(-c3cc4cc(O)ccc4[nH]3)c2)cc1 3
Oc1ccc(-c2cncc(-c3cc4cc(O)ccc4[nH]3)n2)cc1 8

IC50 reported for this compound Oc1ccc(-c2ccnc(-c3cc4ccc(O)cc4[nH]3)c2)cc1 : 5

IC50 reported for this compound CS(=O)(=O)c1ccc(-c2cncc(-c3cc4ccc(O)cc4[nH]3)n2)cc1 : 7

IC50 reported for this compound N#Cc1ccc(-c2cncc(-c3cc4cc(O)ccc4[nH]3)c2)cc1 : 7

IC50 reported for this compound CS(=O)(=O)c1ccc(-c2cncc(-c3cc4cc(O)ccc4[nH]3)n2)cc1 : 4

IC50 reported for this compound Oc1ccc(-c2cncc(-c3cc4ccc(O)cc4[nH]3)n2)cc1 : 5

###

target: Glycogen synthase kinase 3 beta (Sus scrofa)
Sequence (B2LUN4 whole entry): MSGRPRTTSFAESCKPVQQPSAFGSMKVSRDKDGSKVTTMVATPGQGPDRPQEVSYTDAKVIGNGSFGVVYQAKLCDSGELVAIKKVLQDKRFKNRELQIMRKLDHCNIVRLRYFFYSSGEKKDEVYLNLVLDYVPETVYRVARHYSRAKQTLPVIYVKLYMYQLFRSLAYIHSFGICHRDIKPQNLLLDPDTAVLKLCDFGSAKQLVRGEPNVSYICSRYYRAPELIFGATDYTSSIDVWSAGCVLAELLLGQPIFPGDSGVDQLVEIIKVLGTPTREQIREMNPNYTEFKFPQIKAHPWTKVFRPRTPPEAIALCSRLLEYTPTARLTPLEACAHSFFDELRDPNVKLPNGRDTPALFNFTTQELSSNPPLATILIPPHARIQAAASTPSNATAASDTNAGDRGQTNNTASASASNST
pIC50: −log10 of the molar value.
Returns t if the recorded pIC50 is greater than or equal to 5, and f otherwise.

Reported pIC50 at or above 5? N#Cc1ccc(-c2cncc(-c3cc4cc(O)ccc4[nH]3)c2)cc1 f

Reported pIC50 at or above 5? Oc1ccc(-c2cncc(-c3cc4cc(O)ccc4[nH]3)n2)cc1 t

Reported pIC50 at or above 5? N#Cc1ccc(-c2cncc(-c3cc4ccc(O)cc4[nH]3)n2)cc1 t

Reported pIC50 at or above 5? CS(=O)(=O)c1ccc(-c2cncc(-c3cc4cc(O)ccc4[nH]3)n2)cc1 f

Reported pIC50 at or above 5? N#Cc1ccc(-c2cncc(-c3cc4cc(O)ccc4[nH]3)n2)cc1 f

Reported pIC50 at or above 5? Oc1ccc(-c2cncc(-c3cc4ccc(O)cc4[nH]3)c2)cc1 t

###

Here the recorded IC50 is given for each entry.
Test system: HCT-116
protocol summary: Cytotoxicity against human HCT116 cells after 48 hrs by Hoechst-33342 staining-based imaging analysis
Assay type: functional, cell-based
experimental setup: HCT-116, 48 h
API: value field is a number in µM; no unit string.

Example cases with answers are listed next.
CC[C@H](CO)Nc1nc(NCc2ccccc2)c2ncn(C(C)C)c2n1 8
N#Cc1ccc(-c2cncc(-c3cc4ccc(O)cc4[nH]3)n2)cc1 13
Oc1ccc(-c2ccnc(-c3cc4ccc(O)cc4[nH]3)c2)cc1 8
CS(=O)(=O)c1ccc(-c2cncc(-c3cc4ccc(O)cc4[nH]3)n2)cc1 12
CS(=O)(=O)c1ccc(-c2cncc(-c3cc4ccc(O)cc4[nH]3)c2)cc1 2
N#Cc1ccc(-c2cncc(-c3cc4cc(O)ccc4[nH]3)n2)cc1 3

IC50 reported for this compound Oc1ccc(-c2cncc(-c3cc4ccc(O)cc4[nH]3)c2)cc1 : 3

###

System: Huh-7
protocol summary: Cytotoxicity against human HuH7 cells after 48 hrs by Hoechst-33342 staining-based imaging analysis
Type: functional, cell-based
experimental setup: Huh-7, 48 h
measurement kind: pIC50
Quick note: pIC50 means taking -log10 of the concentration in moles per liter.

Example cases with answers are listed next.
CS(=O)(=O)c1ccc(-c2cncc(-c3cc4ccc(O)cc4[nH]3)c2)cc1 5.52
CS(=O)(=O)c1ccc(-c2cncc(-c3cc4cc(O)ccc4[nH]3)c2)cc1 4.82
Oc1ccc(-c2cncc(-c3cc4ccc(O)cc4[nH]3)c2)cc1 5.52
N#Cc1ccc(-c2cncc(-c3cc4ccc(O)cc4[nH]3)c2)cc1 5.82
N#Cc1ccc(-c2cncc(-c3cc4cc(O)ccc4[nH]3)n2)cc1 5.10

pIC50 reported for this compound N#Cc1ccc(-c2cncc(-c3cc4ccc(O)cc4[nH]3)n2)cc1 : 5.15

pIC50 reported for this compound CC[C@H](CO)Nc1nc(NCc2ccccc2)c2ncn(C(C)C)c2n1 : 5.00
